system_tested: plasmin (Homo sapiens, UniProt P00747)
Construct: from tissue
Sequence (P00747 581-810 limits assumed): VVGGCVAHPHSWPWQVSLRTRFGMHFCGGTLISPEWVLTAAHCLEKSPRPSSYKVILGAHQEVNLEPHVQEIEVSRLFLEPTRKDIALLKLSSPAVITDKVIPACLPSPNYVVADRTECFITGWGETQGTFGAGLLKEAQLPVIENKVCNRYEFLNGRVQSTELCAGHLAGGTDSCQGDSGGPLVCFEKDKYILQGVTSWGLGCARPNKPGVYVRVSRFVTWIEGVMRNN
Sequence (P00747 97-580 partner limits assumed): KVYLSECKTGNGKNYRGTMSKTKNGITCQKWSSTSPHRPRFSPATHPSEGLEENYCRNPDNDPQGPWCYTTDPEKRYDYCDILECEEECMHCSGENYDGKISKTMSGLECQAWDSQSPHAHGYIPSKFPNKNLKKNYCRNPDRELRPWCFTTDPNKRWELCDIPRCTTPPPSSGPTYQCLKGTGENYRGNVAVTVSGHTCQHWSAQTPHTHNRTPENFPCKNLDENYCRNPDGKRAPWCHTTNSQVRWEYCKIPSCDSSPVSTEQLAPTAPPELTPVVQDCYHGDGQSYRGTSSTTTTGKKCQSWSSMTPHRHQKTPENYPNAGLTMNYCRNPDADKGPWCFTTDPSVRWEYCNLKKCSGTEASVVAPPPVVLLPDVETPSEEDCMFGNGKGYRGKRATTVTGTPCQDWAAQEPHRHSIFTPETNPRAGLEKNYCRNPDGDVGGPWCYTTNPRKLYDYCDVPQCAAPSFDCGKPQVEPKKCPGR
test_name: Anti-plasmin: 50% inhibition of plasmin in vitro (euglobulin/streptokinase/fibrinogen system)
Type: biochemical
reported_endpoint: IC50
Please answer using a numeric value trailed by its unit.

Given CN(C)C(=O)COC(=O)Cc1ccc(OC(=O)c2ccc(NC(=N)N)cc2)cc1 , state its recorded IC50.
38 nM

###

test_name: Solubility in water
Type: physicochemical
Kindly state solubility for each of the entries shown.

# molecule, reported_endpoint, assay_result
rows = [
    ("N=C(N)Nc1ccc(C(=O)Oc2ccc(C(=O)OCC(N)=O)cc2)cc1 [compound 1]", "solubility", "1 mM"),
]

Below are 7 molecules. Give each one its solubility.
1. CN(C)C(=O)COC(=O)CCc1ccc(OC(=O)c2ccc(NC(=N)N)cc2)cc1 [compound 7]
2. CNC(=O)COC(=O)c1ccc(OC(=O)c2ccc(NC(=N)N)cc2)cc1 [Compound No.2]
3. CCCN(CCC)C(=O)COC(=O)c1ccc(OC(=O)c2ccc(NC(=N)N)cc2)cc1 [compound 4]
4. CN(C)C(=O)COC(=O)C=Cc1ccc(OC(=O)c2ccc(NC(=N)N)cc2)cc1 [compound 6]
5. CN(C)C(=O)COC(=O)c1ccc(OC(=O)c2ccc(NC(=N)N)cc2)cc1 [compound 3]
6. CNC(=O)COC(=O)Cc1ccc(OC(=O)c2ccc(NC(=N)N)cc2)cc1 [compound 8]
7. CN(C)C(=O)COC(=O)Cc1ccc(OC(=O)c2ccc(NC(=N)N)cc2)cc1 [Compound No.5]

1: 10 mM; 2: 50 mM; 3: 10 mM; 4: 10 mM; 5: > 20 mM; 6: 10 mM; 7: 100 mM
